System: BT-549 breast
Test: NCI-60 one-dose screen, 48 h
Settings: 10 µM unless noted
Procedure: Growth inhibition of the BT-549 human tumor cell line is measured as a screen for anti-cancer activity. Cells are grown in 96 well plates and exposed to the test compound for 48 hours. Compounds are tested at a single concentration, which is 10^-5 M for most compounds. The reported endpoint is percent growth (GI% or GIPRCNT), where numbers from 0 - 100% represent growth inhibition, and numbers from -100% - 0 represent cell death. For example, a value of 40 represents 60% growth inhibition. […]
The panel holds about 83,000 compounds, 20% with a hit somewhere; the sample as a whole holds those more often. Active and inactive are the calls of the source. How the source made its calls: active means growth percent below 10; inactive means the rest.
Please state which outcome applies, choosing from active, inactive

Answered cases to consult:
Cc1c(C)c([N+](=O)[O-])c(C)c(C)c1[N+](=O)[O-]
inactive
O=C(c1cccc(O)c1O)c1cn(Cc2ccc(F)cc2)c2cccc(O)c12
inactive
C[C@@H]1O[C@@H](O[C@H]2C[C@@H](O)[C@]3(CO)C4C(CC[C@]3(O)C2)[C@@]2(O)CC[C@H](C3=CC(=O)OC3)[C@@]2(C)C[C@H]4O)[C@H](O)[C@H](O)[C@H]1O (some centres undefined)
active

Below: the item to evaluate.
Any idea what this test logged for "O=c1[nH]cc(N(CCCl)CCCl)c(=O)[nH]1" ? inactive

----------
test system: COLO 205 colon; experiment: NCI-60 one-dose screen, 48 h; settings: 10 µM unless noted
Compounds without any hit were thinned out: in the full panel of roughly 83,000, 20% have a hit. Active and inactive are the calls of the source. The calls were made as follows: active = growth percent below 10; inactive = the rest.
Please state which outcome applies, choosing from true = active, false = inactive

Answered cases to consult:
C1CCC2(CC1)OOCNCOO2
false
CCC(O)(CN)c1ccccc1 (configuration not stated)
false
COc1cc(NCCCN=C(N)N)c2ncccc2c1
false
CN1CC(CNC(=O)OCc2ccccc2)CC2c3cccc4c3c(cn4C)CC21 (configuration not stated)
true
CC(C)=CCC/C(C)=C/C=N\N=C(/N)N[N+](=O)[O-]
false
Nc1cc2nc3ccccc3nc2cc1N
false

Any idea what this test logged for "Fc1cccc(NCOOC2(OOCNc3cccc(F)c3)CCCCC2)c1" ? false

----------
Hi there, I'd appreciate the recorded growth for every entry that follows.
system: NCI-H23 lung; test: NCI-60 one-dose screen, 48 h (100 = growth as untreated, 0 = no growth, -100 = all killed); conditions: 10 µM unless noted
About 83,000 compounds went through this panel and 20% of them were active in at least one assay; those are over-represented in the sample as a whole.
Numbers only, in %.

Take each entry in turn and give its growth.
1. CN(C)C1C(=O)C(C(N)=O)=C(O)C2(O)C(=O)C3=C(O)c4c(O)cccc4C(C)(O)C3CC12.[Cl][Sb]([Cl])[Cl] (stereo not given)
2. Cc1ccc(S(=O)(=O)C(Cl)(Cl)Cl)cc1
3. COc1ccc(C2=N[C@@H](Cc3ccccc3)C(=O)Nc3ccsc32)cc1
4. COc1cccc(/C=C/[N+](=O)[O-])c1
5. CCCCNC(c1ccc(Cl)cc1)C(O)c1ccc(Cl)cc1 (stereo not given)

1. 46.1
2. 98.3
3. 53.7
4. 43.3
5. 38.5

----------
tested on: HS 578T breast; test: NCI-60 one-dose screen, 48 h (100 = growth as untreated, 0 = no growth, -100 = all killed); conditions: 10 µM unless noted
The panel holds about 83,000 compounds, 20% with a hit somewhere; the sample as a whole holds those more often.
Hi there, I'd appreciate the recorded growth for every entry that follows.
Give bare numbers, in %.

Reference set, count: 5
C#Cc1ccc2c(c1)C(c1ccccc1)=NCC(=O)N2C
56.4
C/C1=C/C(=O)O[C@@H]2C[C@@H](CC[C@H](C)/C=C\C=C\CC1)O[C@@](O)([C@@H]1CSC(=O)N1CO)C2
-48.7
COc1cc(/C=N/C2=C(C#N)C(c3ccco3)c3c(c4cc(C)ccc4oc3=O)O2)cc(OC)c1OC (stereo not given)
64.3
COC(=O)[C@@H](C)C[C@H](Cc1ccc2ccccc2c1)NC(=O)c1csc([C@@H](C[C@H](C(C)C)N(C)C(=O)[C@@H](NC(=O)[C@H]2CCCCN2C)C(C)C)OC(C)=O)n1
40.8
O=[N+]([O-])c1cc([N+](=O)[O-])c(Nn2c3ccccc3c3ccccc32)c([N+](=O)[O-])c1
5.42

Take each entry in turn and give its growth.
1. COc1ccc(Nc2ccc([N+](=O)[O-])cc2[N+](=O)[O-])cc1CN(CCCl)CCCl
2. COC(=O)[C@@H](C)C[C@H](Cc1cn(C)c2ccccc12)NC(=O)c1csc([C@@H](C[C@H](C(C)C)N(C)C(=O)[C@@H](NC(=O)[C@H]2CCCCN2C)C(C)C)OC(C)=O)n1
3. CC(=O)O[C@@H]1CC[C@]2(C)[C@H]3CC[C@]4(C)C(=O)CC[C@H]4[C@@H]3C[C@@H]3SC(N)=N[C@@]32C1
4. C[C@]12CC[C@H]3[C@@H](CC[C@]4(O)C[C@@H](O[C@@H]5O[C@H](CO)[C@@H](O[C@@H]6OC[C@@H](O)[C@H](O)[C@H]6O)[C@H](O)[C@H]5O)CC[C@]34C=O)[C@@]1(O)CC[C@@H]2C1=CC(=O)OC1

1: 66.7; 2: 22.7; 3: 54.5; 4: 8.83

Take each entry in turn and give its growth.
1. COc1cc([C@@H]2c3cc4c(cc3[C@H](OC(C)=O)[C@H]3COC(=O)[C@@H]23)OCO4)cc(OC)c1OC
2. CC[C@H](NC(=O)[C@H]1CCCCN1C)C(=O)N(C)[C@H](C[C@@H](OC(C)=O)c1nc(C(=O)N[C@@H](Cc2ccccc2)C[C@H](C)C(=O)O)cs1)C(C)C
3. CC[S][Hg][Cl]
4. COc1cc(/C=C/[N+](=O)[O-])cc(OC)c1
5. CC[C@H](C)[C@H](NC(=O)c1ccccn1)C(=O)N(C)[C@H](C[C@@H](OC(C)=O)c1nc(C(=O)N[C@@H](Cc2ccccc2)C[C@H](C)C(=O)OC)cs1)C(C)C
6. CC(=O)/C=C/c1ccc2c(c1)OCO2

1: 7.08; 2: 11.4; 3: 106; 4: 40.9; 5: -1.12; 6: 106

Origin of measurements: PubChem BioAssay (NCI)
